Assay: folding stability dG unfold from chymotrypsin proteolysis; higher = more stable
observed property: folding stability dG unfold (kcal/mol)
State just the number; it will be interpreted in kcal/mol.

Here is how some sequences turned out for folding stability dG unfold.
SAGGSAGGSAGGETITIKNKKTNETVTIEKDKDGNYTITYPDGSKKTYKKGEKISKSALSAGGSAGGSAGGS [r10_98_TrROS_Hall] ... 1.18
SAGGSAGGSAGGSKIEIEEENGELKITIEVDGKKYEITIPKDMTLEEALKKALEKLPGLSAGGSAGGSAGGS [r4_191_TrROS_Hall] ... 2.5
MMLIIKVKNKKTGKTETIKIDMSVEEIKNAIKELKKKNPNAKVTIIGVKTEEVRKALKEAGIEKIEVKPLPS [r1_114_TrROS_Hall] ... 3.5
SAGGSAGGSAGGPKVIEITNKDGSTFRLVEVDGELYLYNEKTGKVVKLPPGAKITIKKPSAGGSAGGSAGGS [r10_637_TrROS_Hall] ... 2.65
SAGGSMIVIVEIKPDGTIKIKVRTKDGKEKTIEISKEELEKEETPEEIAEKLAKEFEKEGVEEIEISAGGSA [r2_249_TrROS_Hall] ... 2.19

Recorded result, SAGGMTVVSTETDTATGRPVRTVRLPPEASLRELAALDGWVRLVDPAPDREVELPAEDPEAVVEALLASAGG [r13_604_JUSTAS] , folding stability dG unfold: 0.0196

Record summary for SAGGMESSVTTTPDPNSDTTTTTTTVPLPDETTTTTTTTTTAPGTVTTTTTTYPPGGTPTTTTSTTASAGGS [r16_733_JUSTAS] : reported folding stability dG unfold = 1.61

Record SAGGSMTEEELEKKAKEIAEELEKKYKEENPNVEVKVTFEVIPEKGIIKITATSPKGKKLKEIIIPLLSAGG [r13_247_JUSTAS] , field folding stability dG unfold: 3.54

Lab note: measured folding stability dG unfold of SAGGSAGGWIEINILVPLKPGQTPSELADEIAQEFQNQHGWEIKIDDVYPTDNYVWHKIEITPPSAGGSAGG [r6_639_TrROS] was 1.49

// folding stability dG unfold lookup, sequence = SAGGSAGGSAGKLPEGMKMEVRPKTIFNEDGYMIKITIIRAPDPNILAINIEIIPPGDPISAGGSAGGSAGG [r11_338_TrROS] , result: 1.89

Value of measured folding stability dG unfold for the entry SAGGSAGGSAGGKPVKVKVVIPVPDGDEVLVLEVEVEGEGGEEAVRQALEVAAELLREGSAGGSAGGSAGGS [r10_863_TrMRF] : 0.768

Recorded result, SANPALYQWVTTDVVLPFETEEEALAAVEALAAARAAATGATVTVSVEVERLPDGLRVRVPVTTLVPLLSAG [r14_626_JUSTAS] , folding stability dG unfold: 0.984

In plain terms, SAGGSAGGSAGGNKIHIMMPYDWAEEFANELQQQGIDPDNVKIEVHPMEMPPPPPPGDKSAGGSAGGSAGGS [r10_602_TrROS] has a documented folding stability dG unfold of -0.0563

The sequence identified as SAGGPPRPVRIDIDPDAGSIEIMFPNGWPYEIPIPPDSIDEITLDPNDHVIEIKMPGKEIKFDIEPVSAGGS [r16_104_TrROS] registered its folding stability dG unfold at 0.757
